Entries and their T/C
tested on: BDF1 mice, Adenocarcinoma 755 s.c., tumor weight T/C; assay: NCI In Vivo Anticancer Drug Screen. Data for tumor model Adenocarcinoma 755 (subcutaneous) in B6D2F1 (BDF1) mice; conditions: endpoint: mean tumor weight; dose: 60.0 mg/kg/injection; schedule: Q01DX011 (ip); vehicle: carboxymethylcellulose (CMC); higher = larger tumour
property name: T/C

                                   compound           result
0                         Nc1cnc(=O)[nH]c1N  92 % of control
1  CC(=O)OCC1OC(n2cnc3c(=O)[nH]c(N)nc32)CC1OC(C)=O (stereo unspecified)  95 % of control
2  O=c1[nH]c(=O)n(C2CC(O)C(CO)O2)cc1F (stereo unspecified)  14 % of control
3                       CSc1ncn(C)c2ncnc1-2  71 % of control
4            OCCn1cnc2c(SCc3ccccc3Cl)ncnc21  22 % of control
5  CC(=O)OCC1OC(n2cnc3c(=O)[nH]c(N)nc32)C(OC(C)=O)C1OC(C)=O (stereo unspecified)  49 % of control

###

tested on: BDF1 mice, Adenocarcinoma 755 s.c., tumor weight T/C; assay: NCI In Vivo Anticancer Drug Screen. Data for tumor model Adenocarcinoma 755 (subcutaneous) in B6D2F1 (BDF1) mice; conditions: endpoint: mean tumor weight; dose: 200.0 mg/kg/injection; schedule: Q01DX011 (ip); vehicle: saline; higher = larger tumour
property name: T/C

>>> print(df.to_string())
                                   compound           result
0  OCCNc1ncnc2c1ncn2C1CCCO1 (stereo not drawn)  48 % of control
1             Oc1ccc2ccccc2c1N=Nc1ccc(F)cc1  22 % of control
2  CN(C)[C@@H]1C(=O)C(C(=O)NCNc2nc3n[nH]nc3c(=O)[nH]2)=C(O)[C@@]2(O)C(=O)C3=C(O)c4c(O)cccc4[C@@](C)(O)[C@H]3C[C@@H]12  40 % of control
3  CS(=O)(=O)OCC(O)C(O)COS(C)(=O)=O (stereo not drawn)  66 % of control
4  Nc1c(Br)cc2c(c1Br)Cc1cc([N+](=O)[O-])ccc1-2  46 % of control
5  Nc1ncnc2c1ncn2C1CCCC(CO)O1 (stereo not drawn)  93 % of control
6                        Nc1nc(N)c(N)c(N)n1  92 % of control
7            c1ccc2nc(-c3cc4ccccc4s3)ccc2c1  39 % of control

###

The following compounds are shown together with reported T/C values.
Test system: BDF1 mice, Adenocarcinoma 755 s.c., tumor weight T/C
Assay: NCI In Vivo Anticancer Drug Screen. Data for tumor model Adenocarcinoma 755 (subcutaneous) in B6D2F1 (BDF1) mice
Settings: endpoint: mean tumor weight; dose: 62.0 mg/kg/injection; schedule: Q01DX011 (ip); vehicle: methylcellulose (MC); higher = larger tumour
Experimental: The antitumor activity of compounds was measured in mice bearing transplantable tumors. Survival or tumor size were measured and the results are expressed as the measurement made in the treated group (T) divided by the measurement made in the vehicle treated control group (C). The tumor model used in this assay is Adenocarcinoma 755 (subcutaneous) in B6D2F1 (BDF1) mice
property name: T/C

                                    compound                           target_of_assay            result
 0          Cc1cnc(SCc2ccc(Cl)cc2Cl)[nH]c1=O  BDF1 mice, Adenocarcinoma 755 s.c., tumor weight T/C  113 % of control
 1                Cc1ccccc1Nc1nc(N)nc(C)c1Br  BDF1 mice, Adenocarcinoma 755 s.c., tumor weight T/C  106 % of control
 2                  Nc1nc(Cl)cc(-c2ccccc2)n1  BDF1 mice, Adenocarcinoma 755 s.c., tumor weight T/C   94 % of control
 3             Nc1nc(Nc2ccccc2Cl)cc(=O)[nH]1  BDF1 mice, Adenocarcinoma 755 s.c., tumor weight T/C   95 % of control
 4             Nc1nc(Cl)cc(Nc2ccc(CCO)cc2)n1  BDF1 mice, Adenocarcinoma 755 s.c., tumor weight T/C   77 % of control
 5       Cc1cnc(SCc2ccccc2Cl)nc1SCc1ccccc1Cl  BDF1 mice, Adenocarcinoma 755 s.c., tumor weight T/C   65 % of control
 6                Nc1nc(-c2cccnc2)nc(N)c1N=O  BDF1 mice, Adenocarcinoma 755 s.c., tumor weight T/C  166 % of control
 7             N#Cc1ccc(Nc2cc(Cl)nc(N)n2)cc1  BDF1 mice, Adenocarcinoma 755 s.c., tumor weight T/C   50 % of control
 8  CCCCOP(=O)(OCCCC)OCC1OC(n2cnc3c(=S)nc[nH]c32)C(O)C1O (stereo not given)  BDF1 mice, Adenocarcinoma 755 s.c., tumor weight T/C   65 % of control
 9                      N#CCCNC(=O)Nc1ccccc1  BDF1 mice, Adenocarcinoma 755 s.c., tumor weight T/C   58 % of control
10  CC1CN(Cc2ccccc2)C(=S)N(c2ccccc2)C1=O (stereo not given)  BDF1 mice, Adenocarcinoma 755 s.c., tumor weight T/C   96 % of control
11              CCc1c(Cl)nc(N)nc1Nc1ccccc1Cl  BDF1 mice, Adenocarcinoma 755 s.c., tumor weight T/C  103 % of control
12        CCN(CC)c1nc(SCc2ccc(Cl)cc2Cl)ncc1C  BDF1 mice, Adenocarcinoma 755 s.c., tumor weight T/C   71 % of control
13              CCc1c(Cl)nc(N)nc1Nc1ccccc1Br  BDF1 mice, Adenocarcinoma 755 s.c., tumor weight T/C   76 % of control
14                CSc1ncc(Br)c(Nc2ccccc2C)n1  BDF1 mice, Adenocarcinoma 755 s.c., tumor weight T/C  110 % of control
